- Test system: 186277-243-T-J2-PDC complex spheroid growth;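 note: luminescent signal used as a stand-in for viable cell amount; spheroids exposed to compounds for seven days before the viability read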
- protocolDescription: Anticancer human tumor 186277-243-T-J2-PDC patient-derived colon adenocarcinoma cell line growth inhibition [AhR]; active = viability on the fitted dose curve at most 10% of control; inactive = the rest
- assayConditions: second compound 1 µM; first compound 0.0949 µM
Lab note: assign the record to one of active, inactive

Query: What classification did CC(C)CC(NC(=O)C(Cc1ccccc1)NC(=O)c1cnccn1)B(O)O (configuration not stated) + CC(CO)NC(=O)c1cc(-c2ccc(Cl)cc2)nn(-c2cnn(C)c2)c1=O end up with in this test?
Reply: active

Query: What classification did CC(C)CC(NC(=O)C(Cc1ccccc1)NC(=O)c1cnccn1)B(O)O (configuration not stated) + Cc1cncc(-c2nc(NCCc3c[nH]c4ccccc34)c3ncn(C(C)C)c3n2)c1 end up with in this test?
Reply: active

Query: What classification did Nc1ncn(C2CC(O)C(CO)S2)c(=O)n1 (configuration not stated) + Cc1ccccc1N=Nc1ccc(NC(=O)c2ccnn2C)c(C)c1 end up with in this test?
Reply: inactive

Query: What classification did CC(C)CC(NC(=O)C(Cc1ccccc1)NC(=O)c1cnccn1)B(O)O (configuration not stated) + Cc1ccccc1N=Nc1ccc(NC(=O)c2ccnn2C)c(C)c1 end up with in this test?
Reply: active

Query: What classification did CCc1c2c(nc3ccc(O)cc13)-c1cc3c(c(=O)n1C2)COC(=O)[C@]3(O)CC + Cc1ccccc1N=Nc1ccc(NC(=O)c2ccnn2C)c(C)c1 end up with in this test?
Reply: inactive

Query: What classification did CCN(c1cc(-c2ccc(CN3CCOCC3)cc2)cc(C(=O)NCc2c(C)cc(C)[nH]c2=O)c1C)C1CCOCC1 + CC(CO)NC(=O)c1cc(-c2ccc(Cl)cc2)nn(-c2cnn(C)c2)c1=O end up with in this test?
Reply: inactive

Query: What classification did Nc1ncn(C2CC(O)C(CO)S2)c(=O)n1 (configuration not stated) + CC(CO)NC(=O)c1cc(-c2ccc(Cl)cc2)nn(-c2cnn(C)c2)c1=O end up with in this test?
Reply: inactive

Query: What classification did CCc1c2c(nc3ccc(O)cc13)-c1cc3c(c(=O)n1C2)COC(=O)[C@]3(O)CC + Cc1cncc(-c2nc(NCCc3c[nH]c4ccccc34)c3ncn(C(C)C)c3n2)c1 end up with in this test?
Reply: inactive

Query: What classification did CCN(c1cc(-c2ccc(CN3CCOCC3)cc2)cc(C(=O)NCc2c(C)cc(C)[nH]c2=O)c1C)C1CCOCC1 + Cc1cncc(-c2nc(NCCc3c[nH]c4ccccc34)c3ncn(C(C)C)c3n2)c1 end up with in this test?
Reply: inactive

Query: What classification did CCN(c1cc(-c2ccc(CN3CCOCC3)cc2)cc(C(=O)NCc2c(C)cc(C)[nH]c2=O)c1C)C1CCOCC1 + Cc1ccccc1N=Nc1ccc(NC(=O)c2ccnn2C)c(C)c1 end up with in this test?
Reply: inactive

Query: What classification did O=C(C=Cn1cnc(-c2cc(C(F)(F)F)cc(C(F)(F)F)c2)n1)NNc1cnccn1 + Cc1cncc(-c2nc(NCCc3c[nH]c4ccccc34)c3ncn(C(C)C)c3n2)c1 end up with in this test?
Reply: inactive

Query: What classification did O=C(C=Cn1cnc(-c2cc(C(F)(F)F)cc(C(F)(F)F)c2)n1)NNc1cnccn1 + Cc1ccccc1N=Nc1ccc(NC(=O)c2ccnn2C)c(C)c1 end up with in this test?
Reply: inactive
